- system tested: Fuc(a1-2)[Gal(a1-3)]Gal(b1-4)[Fuc(a1-3)]Glc
- assay protocol: glycan array binding signal (z-score within array); higher = stronger binding
- measurement conditions: glycan notation: IUPAC condensed, linker removed
Only a selection was taken, and the strongest signals are over-represented in it overall.
metric: glycan array binding signal (z-score)
Would you mind answering with just the numeric figure?

Asked: Could you share which glycan array binding signal (z-score) value was measured for LSectin (Mus musculus), Q8BNX1 (protein) MNTGEYNKLGSAIEEVSRGQLGRWECYKQRLFFLVLALLVATVLWALILSTLLSSASSKLRVLLSHQDLLRTNASEQKMTLSSLKDDIGACRNCCSVTKAQLQTTLAEFKDIQAKLMEQESILKELQERVTQDLAKASRDRENIRSELFQALEAVKRQNSSCEQCPPSWLPFQGSCYYFSETQATWDTAQSYCGGQGAHLVIVRGLNEQGFLSQHTRGRGYWLGLRAVRHLNKIQGYRWVDGASLNFSHWNSGEPNDSRGHEDCIMMLHSGLWNDAPCTNERDGWICEKRSSCY ?
Given back: -0.124

Asked: Could you share which glycan array binding signal (z-score) value was measured for Gal 3 (Canis lupus) (protein) MADSFSLNDALSGSGNPNPQGWPGPWGNQPAGAGGYPGASYPGAYPGQAPPGGYPGQAPPGGYPGQAPPGGYPGQAPPGGYPGQAPPGGYPGQAPPGTYPGPTAPAYPGPTAPGTQPGQPSGPGAYPPPGQPSAPGAYPAAGPFGIPAGPLTVPYDLPLPGGVKPRMLITILGTVRPSANRLALDFKRGNDVAFHFNPRFNEDNKRVIVCNTKLDNIWGKEERQAAFPFESGKPFKIQVLVESDHFKVAVNDAHLLQYNHRMKNLPEISKLGISGDIDLTSASYAMI ?
Given back: -0.118
